// reported yeast fitness for each item listed
B1: tRNA (parent)
chain: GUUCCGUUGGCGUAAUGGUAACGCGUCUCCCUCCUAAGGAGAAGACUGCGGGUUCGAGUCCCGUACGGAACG

# Variants of: B1
# experiment: yeast fitness relative to wild type (ratio to wild type); higher = fitter; tRNA-Arg(CCU), competitive growth, 37 C, YPD
Variants at the floor of the assay were thinned out.

{"mutation_annotation": "G44C G52A", "yeast fitness": 0.833}
{"mutation_annotation": "U7C G9C A20G G41A", "yeast fitness": "≤ 0.5"}
{"mutation_annotation": "G18A G25C C30G G41U A57U", "yeast fitness": "≤ 0.5"}
{"mutation_annotation": "A21C U28G A43C G52C", "yeast fitness": "≤ 0.5"}
{"mutation_annotation": "G17A U54C U59C C61G", "yeast fitness": "≤ 0.5"}

What measured yeast fitness goes with C4U G12A C60A ?
≤ 0.5

What measured yeast fitness goes with C4U A45C C61U ?
0.738

What measured yeast fitness goes with A14G A20C A36U G39C ?
≤ 0.5

What measured yeast fitness goes with G10C A15U C29G C46U G51C A65G ?
≤ 0.5

What measured yeast fitness goes with G6C U13G G18A C55A ?
0.514

What measured yeast fitness goes with C27G C31G C33U ?
≤ 0.5
